Eos listing for selected molecules.
species: Rattus norvegicus; experiment: Open TG-GATES - Regimen: Daily Repeat; assay type: toxicity, organism-based, Sprague-Dawley; parameters: regimen Daily Repeat, gender Male, age 6 weeks; conditions: in vivo, po, 0 mg/kg, […], tissue Blood, route gavage, dose level Control, time 7 day
The reply should contain only the number, in %.

Guide cases for Eos, answers given:
>>> print(df.to_string())
                                   molecule  val
0  CCCCNC(=O)NS(=O)(=O)c1ccc(C)cc1 [TOLBUTAMIDE]    1
1     CCCCC1C(=O)N(c2ccccc2)N(c2ccccc2)C1=O  0.8
2                   O=C(O)c1ccccc1Nc1ccccc1    1
3      CN(C/C=C/C#CC(C)(C)C)Cc1cccc2ccccc12    1
4  CN(CCOc1ccc(CC2SC(=O)NC2=O)cc1)c1ccccn1.O=C(O)/C=C\C(=O)O (configuration not stated) [ROSIGLITAZONE MALEATE]    1
5                          O=c1ccc2ccccc2o1  0.6

## Input Determine its reported Eos: NS(=O)(=O)c1cc(C(=O)O)c(NCc2ccco2)cc1Cl [FUROSEMIDE]
## Output 1

###

species on record: Rattus norvegicus; assay: Open TG-GATES - Regimen: Daily Repeat; type: toxicity, organism-based, Sprague-Dawley; set-up: regimen Daily Repeat, gender Male, age 6 weeks; conditions: in vivo, po, 0 mg/kg, […], tissue Plasma, route gavage, dose level Control, time 28 day
Assay readout: Na

The following compounds have reported results that may help.
>>> print(df.to_string())
                                   compound  assay_readout          val
0  CN(CCOc1ccc(CC2SC(=O)NC2=O)cc1)c1ccccn1.O=C(O)/C=C\C(=O)O (stereo not given) [ROSIGLITAZONE MALEATE]             Na  139.8 meq/L
1      CN(C/C=C/C#CC(C)(C)C)Cc1cccc2ccccc12             Na  141.8 meq/L
2  CC(=O)[C@@]1(O)CC[C@H]2[C@@H]3C=C(Cl)C4=CC(=O)CC[C@]4(C)[C@H]3CC[C@@]21C             Na  141.2 meq/L
3                CCN(CC)C(=S)SSC(=S)N(CC)CC             Na  143.2 meq/L
4  NS(=O)(=O)c1cc(C(=O)O)c(NCc2ccco2)cc1Cl [FUROSEMIDE]             Na  143.8 meq/L
5                   Nc1ccc(Cc2ccc(N)cc2)cc1             Na  144.4 meq/L

## Input Tell me Na reported for CC(S)C(=O)NCC(=O)O (stereo not given)
## Output 143.2 meq/L

## Input Output measured Na for this item: CCCCNC(=O)NS(=O)(=O)c1ccc(C)cc1 [TOLBUTAMIDE]
## Output 143.2 meq/L

## Input Supply measured Na of `O=c1ccc2ccccc2o1` in your reply.
## Output 138.8 meq/L

## Input Note down Na recorded for `CCO`
## Output 140.8 meq/L

###

species on record: Rattus norvegicus; test: Open TG-GATES - Regimen: Single; assay type: toxicity, organism-based, Sprague-Dawley; set-up: regimen Single, gender Male, age 6 weeks; details: in vivo, po, 0 mg/kg, 9 h, tissue Plasma, route gavage, dose level Control
Attribute: ALT
Remember to put the unit after the number in your answer.

>>> df
                     compound        val
0     O=C(O)c1ccccc1Nc1ccccc1    35 IU/L
1  CCN(CC)C(=S)SSC(=S)N(CC)CC  33.6 IU/L

## Input Tell me its ALT given CN(CCOc1ccc(CC2SC(=O)NC2=O)cc1)c1ccccn1.O=C(O)/C=C\C(=O)O (stereo not drawn) [ROSIGLITAZONE MALEATE] as the entry.
## Output 34.2 IU/L

## Input Give recorded ALT. `COc1cc2ncnc(Nc3ccc(F)c(Cl)c3)c2cc1OCCCN1CCOCC1`
## Output 35.2 IU/L

## Input Answer with the recorded ALT for the compound listed here: `CCO`
## Output 30.8 IU/L

## Input Determine its reported ALT: `CN(C/C=C/C#CC(C)(C)C)Cc1cccc2ccccc12`
## Output 31 IU/L

## Input Assign ALT to the following record: `Nc1ccc(Cc2ccc(N)cc2)cc1`
## Output 27.4 IU/L

## Input In one line, give reported ALT of the entry `COc1ccc([C@@H]2Sc3ccccc3N(CCN(C)C)C(=O)[C@@H]2OC(C)=O)cc1` .
## Output 43 IU/L
